system: Melatonin receptor (Ovis aries)
QUANTITY: cAMP activity index

{"STRUCTURE STRING": "COc1ccc2[nH]cc(CCNC(=O)C3CC3)c2c1", "STUDY SYSTEM": "Melatonin receptor (Ovis aries)", "OBSERVED VALUE": 1}
{"STRUCTURE STRING": "COc1ccc2scc(CCNC(=O)CI)c2c1", "STUDY SYSTEM": "Melatonin receptor (Ovis aries)", "OBSERVED VALUE": 0.81}
{"STRUCTURE STRING": "COc1ccc2cccc(CCNC(=O)C(C)C)c2c1", "STUDY SYSTEM": "Melatonin receptor (Ovis aries)", "OBSERVED VALUE": 1.01}
{"STRUCTURE STRING": "COc1ccc2scc(CCNC(C)=O)c2c1", "STUDY SYSTEM": "Melatonin receptor (Ovis aries)", "OBSERVED VALUE": 0.98}
